# tested-system: mouse αvβ5 (Mus musculus, UniProt O70309+P43406)
# Construct: mαV 1 988; m β5 1 719
# Sequence (P43406 31-988): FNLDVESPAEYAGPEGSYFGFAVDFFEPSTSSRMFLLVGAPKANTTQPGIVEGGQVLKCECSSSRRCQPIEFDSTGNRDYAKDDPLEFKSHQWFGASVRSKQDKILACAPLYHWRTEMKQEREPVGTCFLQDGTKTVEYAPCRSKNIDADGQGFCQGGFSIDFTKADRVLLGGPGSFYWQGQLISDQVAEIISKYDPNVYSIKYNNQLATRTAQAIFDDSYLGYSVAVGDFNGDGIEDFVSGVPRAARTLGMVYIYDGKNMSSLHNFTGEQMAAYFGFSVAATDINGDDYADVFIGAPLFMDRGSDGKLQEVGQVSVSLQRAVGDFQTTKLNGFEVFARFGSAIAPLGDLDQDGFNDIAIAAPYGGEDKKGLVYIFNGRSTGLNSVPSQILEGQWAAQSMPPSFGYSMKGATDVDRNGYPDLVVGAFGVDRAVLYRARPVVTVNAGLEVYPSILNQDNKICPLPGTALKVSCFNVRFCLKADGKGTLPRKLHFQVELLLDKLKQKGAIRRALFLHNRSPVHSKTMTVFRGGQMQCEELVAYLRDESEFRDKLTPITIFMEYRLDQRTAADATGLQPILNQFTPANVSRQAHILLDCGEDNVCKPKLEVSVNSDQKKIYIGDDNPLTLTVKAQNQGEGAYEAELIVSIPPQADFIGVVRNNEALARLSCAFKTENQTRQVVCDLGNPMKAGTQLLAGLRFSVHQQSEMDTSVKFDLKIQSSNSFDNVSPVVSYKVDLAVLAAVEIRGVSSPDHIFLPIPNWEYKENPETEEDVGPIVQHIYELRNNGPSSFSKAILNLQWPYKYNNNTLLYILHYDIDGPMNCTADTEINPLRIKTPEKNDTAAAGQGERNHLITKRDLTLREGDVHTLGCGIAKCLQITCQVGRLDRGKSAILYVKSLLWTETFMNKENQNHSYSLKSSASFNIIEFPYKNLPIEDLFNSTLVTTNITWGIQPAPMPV
# Sequence (O70309 24-719): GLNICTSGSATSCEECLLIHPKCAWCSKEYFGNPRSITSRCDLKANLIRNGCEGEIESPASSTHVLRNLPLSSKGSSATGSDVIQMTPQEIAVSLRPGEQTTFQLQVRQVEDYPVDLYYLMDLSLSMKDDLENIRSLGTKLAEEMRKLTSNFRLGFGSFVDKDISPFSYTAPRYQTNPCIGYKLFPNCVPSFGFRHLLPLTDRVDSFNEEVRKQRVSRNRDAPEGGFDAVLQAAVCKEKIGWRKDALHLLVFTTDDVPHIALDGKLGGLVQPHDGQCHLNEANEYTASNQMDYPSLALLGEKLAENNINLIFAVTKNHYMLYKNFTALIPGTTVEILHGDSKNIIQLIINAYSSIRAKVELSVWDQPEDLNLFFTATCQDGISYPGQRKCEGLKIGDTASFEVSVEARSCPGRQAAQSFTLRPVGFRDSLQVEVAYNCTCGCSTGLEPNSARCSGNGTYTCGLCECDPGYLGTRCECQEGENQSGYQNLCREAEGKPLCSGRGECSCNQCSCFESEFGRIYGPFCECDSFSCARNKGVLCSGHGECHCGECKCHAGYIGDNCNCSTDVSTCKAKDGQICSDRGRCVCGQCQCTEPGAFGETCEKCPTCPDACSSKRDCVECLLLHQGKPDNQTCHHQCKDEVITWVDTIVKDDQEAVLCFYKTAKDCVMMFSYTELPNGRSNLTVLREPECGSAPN
# assay-remarks: AlphaLISA integrin-ligand binding assay
# recorded-conditions: Fig. 4B; read-out: IC50 Mouse integrin AlphaLISA assays: mαvβ5

# compound, IC50
measured = [
    ("COc1ccc(C(CC(=O)O)N2CCN(CCCc3ccc4c(n3)NCCC4)C2=O)cn1 (stereo not shown)", "48.3 nM"),
]

Values from paper PMC7822819
